These data points were gathered from patent US20230002503A1.

Target: human CAIX antigen (purchased from AcroBiosystems) (human, UniProt Q16790 38-414)
Assay: BLI (ForteBio), antibody on AHQ sensor, 100 nM antigen, 1:1 model
outcomeMeasure: koff (s⁻¹)
Numbers only here, please. The scale is s⁻¹.

Data request: Name the recorded koff for H-YE-37 (Fc fusion, also called CAIX nanobody H-YE-37; not shown: human IgG1 Fc segment) QVQLQESGGGLMHDGDSLRLSCAASGRTFSTYAMGWFRQAPGKEREFVAAISWSGGSTYYADSVKGRFTISRDNAKNTVYLQMNSLKPEDTAVYYCAAEGIYNSGSSYHDANGYDYWGQGTQVTVSS .
Data returned: 0.00249

Please turn your attention to the following entry.
Data request: Name the recorded koff for H-YE-32 (Fc fusion, also called CAIX nanobody H-YE-32; not shown: human IgG1 Fc segment) QVQLQESGGGLVQPGGSLRLSCAASGGARNIFSFAAMAWYRQAPGKQRELVAVITSAGGTQYSSSVKGRFTISRDNAKKTVLLQMNSLKPEDTAVYYCNADYYQDYWGQGTQVTVSS .
Data returned: 0.000492
